System: Musca domestica (houseflies)
Assay: Pest toxicity test, contact test
Type: in vivo
Conditions: 0.1% by weight; milk/sugar; 2 days; flies sprayed directly
measuredQuantity: Mortality grading (kill), contact test

Task: Mortality grading (kill), contact test for Fc1nc(F)c(Cl)c(Nc2cc(C(F)(F)F)ccc2Br)c1Cl ?
Output: 0 (O represents less than 30% kill)

Task: Mortality grading (kill), contact test for N#Cc1c(F)c(F)c(Nc2c(Cl)c(F)nc(F)c2Cl)c(F)c1F ?
Output: 3 (3 represents over 90% kill)

Task: Mortality grading (kill), contact test for COc1nc(F)c(Cl)c(Nc2c(F)c(F)c(C#N)c(F)c2F)c1Cl ?
Output: 2 (2 represents 60 - 90% kill)

Task: Mortality grading (kill), contact test for O=[N+]([O-])c1ccc(Nc2c(Cl)c(Cl)nc(Cl)c2Cl)c([N+](=O)[O-])c1 ?
Output: 0 (O represents less than 30% kill)

Task: Mortality grading (kill), contact test for O=[N+]([O-])c1cc(Br)c(Nc2c(Cl)c(F)nc(F)c2Cl)c([N+](=O)[O-])c1 ?
Output: 3 (3 represents over 90% kill)

Task: Mortality grading (kill), contact test for O=[N+]([O-])c1cc(Cl)c(Nc2c(Cl)c(F)nc(F)c2Cl)c(Cl)c1 ?
Output: 3 (3 represents over 90% kill)

Task: Mortality grading (kill), contact test for N#Cc1c(F)c(F)c(Nc2c(Cl)c(Cl)nc(Cl)c2Cl)c(F)c1F ?
Output: 3 (3 represents over 90% kill)

Task: Mortality grading (kill), contact test for Fc1ccc(Nc2c(Cl)c(F)nc(F)c2Cl)cc1 ?
Output: 0 (O represents less than 30% kill)

Task: Mortality grading (kill), contact test for Fc1nc(F)c(Cl)c(Nc2c(Cl)cccc2Cl)c1Cl ?
Output: 0 (O represents less than 30% kill)

Task: Mortality grading (kill), contact test for O=[N+]([O-])c1cc(C(F)(F)F)ccc1Nc1c(Cl)c(F)nc(F)c1Cl ?
Output: 0 (O represents less than 30% kill)

Task: Mortality grading (kill), contact test for O=[N+]([O-])c1ccc(Nc2c(Cl)c(F)nc(Cl)c2Cl)c(C(F)(F)F)c1 ?
Output: 3 (3 represents over 90% kill)

Task: Mortality grading (kill), contact test for O=[N+]([O-])c1cc([N+](=O)[O-])c2ccccc2c1Nc1c(Cl)c(F)nc(F)c1Cl ?
Output: 0 (O represents less than 30% kill)

* * *

Tested on: Oat
Assay: Further herbicidal test, various rates
Type: in vivo
Details: 5 kg/hectare; scale 0 to 5 (complete kill)
measuredQuantity: Damage to plants, post-emergence
Output: the number by itself.

Task: Damage to plants, post-emergence for O=[N+]([O-])c1ccc(Nc2c(F)c(F)nc(F)c2Cl)c(C(F)(F)F)c1 ?
Output: 0

Task: Damage to plants, post-emergence for O=[N+]([O-])c1ccc(Nc2c(F)c(F)nc(F)c2F)c(C(F)(F)F)c1 ?
Output: 0

Task: Damage to plants, post-emergence for Fc1nc(F)c(Cl)c(Nc2c(Cl)c(F)c(Cl)c(F)c2Cl)c1Cl ?
Output: 4

Task: Damage to plants, post-emergence for N#Cc1c(F)c(F)c(Nc2c(Cl)c(Cl)nc(Cl)c2Cl)c(F)c1F ?
Output: 4

* * *

Test system: Lettuce
Test: Herbicidal test, pre- and post-emergence
Format: in vivo
Details: 10 kg/ha; scale 0 to 3 (complete kill)
Can you tell me Damage to plants, pre-emergence for the items I'm about to list?
Output: the number by itself.

Task: Damage to plants, pre-emergence for O=[N+]([O-])c1cc(Cl)cc([N+](=O)[O-])c1Nc1c(Cl)c(F)nc(F)c1Cl ?
Output: 3

Task: Damage to plants, pre-emergence for O=[N+]([O-])c1cc(Br)c(Nc2c(Cl)c(F)nc(F)c2Cl)c([N+](=O)[O-])c1 ?
Output: 3

Task: Damage to plants, pre-emergence for O=[N+]([O-])c1ccc(Nc2c(Cl)c(F)nc(Cl)c2Cl)c(C(F)(F)F)c1 ?
Output: 2

Task: Damage to plants, pre-emergence for N#Cc1c(F)c(F)c(Nc2c(Cl)c(Cl)nc(Cl)c2Cl)c(F)c1F ?
Output: 3

Task: Damage to plants, pre-emergence for N#Cc1cc([N+](=O)[O-])ccc1Nc1c(Cl)c(F)nc(F)c1Cl ?
Output: 3

Task: Damage to plants, pre-emergence for O=[N+]([O-])c1ccc(Nc2c(F)c(F)nc(F)c2Cl)c(C(F)(F)F)c1 ?
Output: 3

Task: Damage to plants, pre-emergence for Fc1nc(F)c(Cl)c(Nc2c(Cl)c(F)c(Cl)c(F)c2Cl)c1Cl ?
Output: 3

Task: Damage to plants, pre-emergence for O=[N+]([O-])c1cc(Cl)c(Nc2c(Cl)c(F)nc(F)c2Cl)c(Cl)c1 ?
Output: 3

Task: Damage to plants, pre-emergence for O=[N+]([O-])c1ccc(Nc2c(F)c(F)nc(F)c2F)c(C(F)(F)F)c1 ?
Output: 3

Task: Damage to plants, pre-emergence for N#Cc1cc([N+](=O)[O-])c(Nc2c(Cl)c(F)nc(F)c2Cl)c([N+](=O)[O-])c1 ?
Output: 3

Task: Damage to plants, pre-emergence for O=[N+]([O-])c1ccc(Nc2c(F)c(F)nc(F)c2Cl)c([N+](=O)[O-])c1 ?
Output: 3

Recorded values, source patent US3965109A.
